- Test details: Biodistribution of radiometal-DOTA-BBN conjugates in CF1 normal mice
- Measurement parameters: 1 hour post-injection
Measured quantity: Avg % ID, Spleen
Include the unit after the number when you answer.

What value of Avg % ID, Spleen has been reported for the following compound? CSCC[C@H](NC(=O)[C@H](CC(C)C)NC(=O)[C@H](Cc1cnc[nH]1)NC(=O)CNC(=O)[C@@H](NC(=O)[C@H](C)NC(=O)[C@H](Cc1c[nH]c2ccccc12)NC(=O)[C@H](CCC(N)=O)NC(=O)CCCCCCCNC(=O)CN1CCN(CC(=O)O)CCN(CC(=O)O)CCN(CC(=O)O)CC1)C(C)C)C(N)=O [177Lu-DOTA-8-Aoc-BBN[7-14]NH2] [metal not drawn]
0.16 ± 0.05 % ID

###

- Tested on: GRP receptors on Swiss 3T3 cells (Mus musculus, UniProt P21729)
- Construct: endogenous in cells
- Sequence (P21729 whole entry): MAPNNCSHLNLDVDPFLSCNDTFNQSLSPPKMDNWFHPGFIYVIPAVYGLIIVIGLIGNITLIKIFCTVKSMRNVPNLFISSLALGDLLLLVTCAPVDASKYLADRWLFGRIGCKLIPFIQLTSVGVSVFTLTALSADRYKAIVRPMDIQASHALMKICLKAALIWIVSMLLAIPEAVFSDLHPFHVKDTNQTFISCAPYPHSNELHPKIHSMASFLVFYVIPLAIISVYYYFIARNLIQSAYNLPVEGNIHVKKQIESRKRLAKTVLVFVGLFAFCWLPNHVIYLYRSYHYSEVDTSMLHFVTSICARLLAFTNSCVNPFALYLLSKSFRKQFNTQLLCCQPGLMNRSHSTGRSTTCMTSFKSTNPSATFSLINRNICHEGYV
- Test details: Competitive cell binding vs 125I-Tyr4-BBN, Swiss 3T3 cells
Some molecules, each annotated with its measured IC50.
Quick reminder: number only, in nM, skip the unit.

# count of solved cases: 2
Molecule	Tested on	IC50 / nM
CSCC[C@H](NC(=O)[C@H](CC(C)C)NC(=O)[C@H](Cc1c[nH]cn1)NC(=O)CNC(=O)[C@@H](NC(=O)[C@H](C)NC(=O)[C@H](Cc1c[nH]c2ccccc12)NC(=O)[C@H](CCC(N)=O)NC(=O)CCCCNC(=O)COC1CSCCCSCCCSCCCSC1)C(C)C)C(N)=O [BBN-37]	GRP receptors on Swiss 3T3 cells (Mus musculus, UniProt P21729)	1.79
CC(C)C[C@H](NC(=O)[C@H](Cc1c[nH]cn1)NC(=O)CNC(=O)[C@@H](NC(=O)[C@H](C)NC(=O)[C@H](Cc1c[nH]c2ccccc12)NC(=O)[C@H](CCC(N)=O)NC(=O)CCCCNC(=O)COC1CSCCCSCCCSCCCSC1)C(C)C)C(N)=O [105Rh-BBN-61]	GRP receptors on Swiss 3T3 cells (Mus musculus, UniProt P21729)	4.1

What value of IC50 has been reported for the following molecule? CSCC[C@H](NC(=O)[C@H](CC(C)C)NC(=O)[C@H](Cc1c[nH]cn1)NC(=O)CNC(=O)[C@@H](NC(=O)[C@H](C)NC(=O)[C@H](Cc1c[nH]c2ccccc12)NC(=O)[C@H](CCC(N)=O)NC(=O)CCCCNC(=O)COC1CSCCCSCCCSCCCSC1)C(C)C)C(N)=O [RhCl2BBN-37]
4.76

What value of IC50 has been reported for the following molecule? CSCC[C@H](NC(=O)[C@H](CC(C)C)NC(=O)[C@H](Cc1c[nH]cn1)NC(=O)CNC(=O)[C@@H](NC(=O)[C@H](C)NC(=O)[C@H](Cc1c[nH]c2ccccc12)NC(=O)[C@H](CCC(N)=O)NC(=O)CCNC(=O)COC1CSCCCSCCCSCCCSC1)C(C)C)C(N)=O [BBN-46]
2.34

What value of IC50 has been reported for the following molecule? CSCC[C@H](NC(=O)[C@H](CC(C)C)NC(=O)[C@H](Cc1c[nH]cn1)NC(=O)CNC(=O)[C@@H](NC(=O)[C@H](C)NC(=O)[C@H](Cc1c[nH]c2ccccc12)NC(=O)[C@H](CCC(N)=O)NC(=O)CCCCCCCNC(=O)COC1CSCCCSCCCSCCCSC1)C(C)C)C(N)=O
4.19

What value of IC50 has been reported for the following molecule? CSCC[C@H](NC(=O)[C@H](CC(C)C)NC(=O)[C@H](Cc1c[nH]cn1)NC(=O)CNC(=O)[C@@H](NC(=O)[C@H](C)NC(=O)[C@H](Cc1c[nH]c2ccccc12)NC(=O)[C@H](CCC(N)=O)NC(=O)CCNC(=O)COC1CSCCCSCCCSCCCSC1)C(C)C)C(N)=O [RhCl2BBN-46]
3.38
